Tested system: T1, RBFOX1 RRM RbFoxmut (Fox-RRM*) (Homo sapiens, UniProt Q9NWB1 109-208, R118D;E147R;N151S;E152T)
T1 sequence: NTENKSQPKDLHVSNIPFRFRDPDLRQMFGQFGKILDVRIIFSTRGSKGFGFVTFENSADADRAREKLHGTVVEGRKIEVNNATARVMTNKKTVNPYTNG
Measurement protocol: EMSA; HiTS-Eq, 1 nM pool, 10 min; buffer printed only for the single-RNA assays: 10 mM Tris pH 7.5, 150 mM NaCl, 3.4 mM EDTA, 0.001% NP-40, 30 C
Condition description: tags: His6 N-terminal (pET28a); label: 5' 32P
Whole data set: some 16,000 sequences, median “ka relative to ugcaugu” near 0.096, cut for the highest 2% near 0.35. The entries come from a sample that favours the highest values as a whole.
Listed below: binding signal values for each entry.

Solved entries:
1) GCAUUGA (DNA:RNA) RNA: GGGAGACCGGAAUUCAGAUUGUCCGCAUUGAUUAAAUCCCGUCGUAGCCACCA DNA 1: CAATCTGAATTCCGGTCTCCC DNA 2: TGGTGGCTACGACGGGATT :: 0.178 KA relative to UGCAUGU
2) GUAUUCU (DNA:RNA) RNA: GGGAGACCGGAAUUCAGAUUGUCCGUAUUCUUUAAAUCCCGUCGUAGCCACCA DNA 1: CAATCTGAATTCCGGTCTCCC DNA 2: TGGTGGCTACGACGGGATT :: 0.0952 KA relative to UGCAUGU

Reported binding signal of GUCAUGA (DNA:RNA) RNA: GGGAGACCGGAAUUCAGAUUGUCCGUCAUGAUUAAAUCCCGUCGUAGCCACCA DNA 1: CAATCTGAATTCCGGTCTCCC DNA 2: TGGTGGCTACGACGGGATT : 0.2 KA relative to UGCAUGU

Lab book: binding signal of GGAUGAC (DNA:RNA) RNA: GGGAGACCGGAAUUCAGAUUGUCCGGAUGACUUAAAUCCCGUCGUAGCCACCA DNA 1: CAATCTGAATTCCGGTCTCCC DNA 2: TGGTGGCTACGACGGGATT noted as 0.124 KA relative to UGCAUGU

UAUCUUG (DNA:RNA) RNA: GGGAGACCGGAAUUCAGAUUGUCCUAUCUUGUUAAAUCCCGUCGUAGCCACCA DNA 1: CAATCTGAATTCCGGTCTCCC DNA 2: TGGTGGCTACGACGGGATT yielded binding signal of 0.0958 KA relative to UGCAUGU

Values from paper PMC9911399
